Origin of values: ChEMBL document CHEMBL3400053

test: Volume of distribution at steady state in cannulated fed Sprague-Dawley rat at 2 mg/kg, iv; type: ADME, organism-based; parameters: dose 2 mg/kg, route intravenous; conditions: in vivo, read-out: Vdss
PARAMETER_MEASURED: Vd (L/kg)
One number for each entry, in L/kg.

Entry COCCCOc1cc(C(=O)N(C[C@@H]2CNC[C@H]2OC(=O)NCc2ccccc2)C(C)C)ccc1OC ; Vd = 4.9

---

For each of the compounds below, state its pIC50.
target: Renin (Homo sapiens); test: Inhibition of human recombinant renin by TR-FRET assay
Sequence (P00797 whole entry): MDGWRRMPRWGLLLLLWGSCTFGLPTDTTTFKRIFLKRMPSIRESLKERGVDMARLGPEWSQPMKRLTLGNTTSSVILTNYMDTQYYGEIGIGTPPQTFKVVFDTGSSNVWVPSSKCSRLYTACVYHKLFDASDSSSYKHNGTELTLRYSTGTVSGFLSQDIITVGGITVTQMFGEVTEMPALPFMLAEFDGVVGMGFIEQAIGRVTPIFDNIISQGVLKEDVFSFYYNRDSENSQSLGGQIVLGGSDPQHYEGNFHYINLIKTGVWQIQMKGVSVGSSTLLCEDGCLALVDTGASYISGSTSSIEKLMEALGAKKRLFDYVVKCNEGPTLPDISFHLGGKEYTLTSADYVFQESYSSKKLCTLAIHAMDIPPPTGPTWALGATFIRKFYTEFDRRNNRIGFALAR
Answers are plain numbers, as −log10 of the molar value.

COMPOUND | SUBJECT_OF_TEST | pIC50
COCCCOc1cc(C(=O)N(C[C@@H]2CNC[C@H]2OCc2cccc(-c3ccccc3)c2)C(C)C)ccc1OC (racemic) | Renin (Homo sapiens) | 6.84

Would you mind giving pIC50 for every compound in the list below?
1. COCCCOc1cc(C(=O)N(C[C@@H]2CNC[C@H]2OC(=O)N(C)Cc2cccc3ccccc23)C(C)C)ccc1OC (racemic)
2. COCCCOc1cc(C(=O)N(C[C@@H]2CNC[C@H]2OCc2cccc(-c3cccc(OC)c3)c2)C(C)C)ccc1OC (racemic)
3. COCCCOc1cc(C(=O)N(C[C@@H]2CNC[C@H]2OC(=O)N(C)Cc2ccccc2-n2cccc2)C(C)C)ccc1OC (racemic)
4. COCCCOc1cc(C(=O)N(C[C@@H]2CNC[C@H]2OCc2cccc(-c3cccc(C)c3)c2)C(C)C)ccc1OC (racemic)
5. COCCCOc1cc(C(=O)N(C[C@@H]2CNC[C@H]2OCc2cccc(Oc3ccccc3)c2)C(C)C)ccc1OC (racemic)
6. COCCCOc1cc(C(=O)N(C[C@@H]2CNC[C@H]2OC(=O)N(C)Cc2ccccc2N2CCCC2)C(C)C)ccc1OC (racemic)
7. COCCCOc1cc(C(=O)N(C[C@H]2CNC[C@@H]2OC(=O)NCc2ccccc2)C(C)C)ccc1OC

7.35
6.46
8.05
7.19
6.60
7.10
5.04

Go through the list and state pIC50 for each entry.
1. CCOc1ccccc1-c1cccc(CO[C@@H]2CNC[C@H]2CN(C(=O)c2ccc(OC)c(OCCCOC)c2)C(C)C)c1 (racemic)
2. COCCCOc1cc(C(=O)N(C[C@H]2CNC[C@H]2OCc2ccccc2)C(C)C)ccc1OC (racemic)

1. 6.26
2. 5.50
